# TEST SYSTEM: cyclooxygenase (COX)-2 (Homo sapiens, UniProt P35354)
# Sequence (P35354 18-604): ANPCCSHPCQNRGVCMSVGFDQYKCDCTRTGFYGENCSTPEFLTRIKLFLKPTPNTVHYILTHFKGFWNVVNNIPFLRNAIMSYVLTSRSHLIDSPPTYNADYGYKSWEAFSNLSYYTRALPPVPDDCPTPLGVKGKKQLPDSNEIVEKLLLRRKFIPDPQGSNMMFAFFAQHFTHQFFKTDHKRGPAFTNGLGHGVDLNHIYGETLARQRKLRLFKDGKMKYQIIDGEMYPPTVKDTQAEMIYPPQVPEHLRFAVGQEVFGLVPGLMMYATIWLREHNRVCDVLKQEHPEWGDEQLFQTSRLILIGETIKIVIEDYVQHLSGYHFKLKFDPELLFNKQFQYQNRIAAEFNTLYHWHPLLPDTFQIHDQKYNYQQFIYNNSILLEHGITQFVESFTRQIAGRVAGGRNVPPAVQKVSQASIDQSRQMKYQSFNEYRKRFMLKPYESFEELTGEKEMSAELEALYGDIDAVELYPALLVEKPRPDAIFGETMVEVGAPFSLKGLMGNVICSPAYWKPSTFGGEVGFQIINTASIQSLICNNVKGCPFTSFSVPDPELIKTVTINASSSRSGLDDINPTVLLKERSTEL
# TEST DESCRIPTION: LPS-stimulated human whole blood PGE2 (RIA); also HCA7 cells (COX-2 only), IC50 […], with washout
READOUT NAME: IC50

>>> print(df.to_string())
                                   compound  readout_name  result
0  CC(C)(Oc1ccc(CCNC(=O)c2ccc(Cl)cc2)cc1)C(=O)NS(=O)(=O)c1ccccc1 [compound 6, AA520]          IC50  100 nM
